- EXPERIMENTAL PROTOCOL: clinical
- CONDITION: human, in vivo, 20 mg/m2, Tmax
QUANTITY MEASURED: Tmax (min)

{"MOLECULE": "CC[C@@]1(O)C(=O)OCc2c1cc1n(c2=O)Cc2cc3c(CN(C)C)c(O)ccc3nc2-1 [Topotecan, reference compound]", "QUANTITY MEASURED": "Tmax", "RESULT NUMBER": 29}
{"MOLECULE": "CC[C@@]1(OC(=O)[C@H](C)O)C(=O)OCc2c1cc1n(c2=O)Cc2cc3c(CN(C)C)c(O)ccc3nc2-1 [TLC-U2, S,S-topotecan lactate]", "QUANTITY MEASURED": "Tmax", "RESULT NUMBER": 29}
{"MOLECULE": "CC[C@@]1(OC(=O)[C@@H](C)O)C(=O)OCc2c1cc1n(c2=O)Cc2cc3c(CN(C)C)c(O)ccc3nc2-1 [TLC-U1, S,R-topotecan lactate]", "QUANTITY MEASURED": "Tmax", "RESULT NUMBER": 24.3}

* * *

- EXPERIMENTAL PROTOCOL: clinical
- CONDITION: human, in vivo, 30 mg/m2, Cmax

{"COMPOUND": "CC[C@@]1(OC(=O)[C@@H](C)O)C(=O)OCc2c1cc1n(c2=O)Cc2cc3c(CN(C)C)c(O)ccc3nc2-1 [TLC-U1, S,R-topotecan lactate]", "RESULT UNITS": "ng/mL", "Cmax": 105}

* * *

- EXPERIMENTAL PROTOCOL: clinical
- CONDITION: human, in vivo, 50 mg/m2, t1/2
// values below are reported half-life
QUANTITY MEASURED: half-life

{"MOLECULE": "CC[C@@]1(O)C(=O)OCc2c1cc1n(c2=O)Cc2cc3c(CN(C)C)c(O)ccc3nc2-1 [Topotecan, reference compound]", "RESULT": "7.39 h"}
{"MOLECULE": "CC[C@@]1(OC(=O)[C@@H](C)O)C(=O)OCc2c1cc1n(c2=O)Cc2cc3c(CN(C)C)c(O)ccc3nc2-1 [TLC-U1, S,R-topotecan lactate]", "RESULT": "2.9 h"}
{"MOLECULE": "CC[C@@]1(OC(=O)[C@H](C)O)C(=O)OCc2c1cc1n(c2=O)Cc2cc3c(CN(C)C)c(O)ccc3nc2-1 [TLC-U2, S,S-topotecan lactate]", "RESULT": "2.55 h"}

* * *

- EXPERIMENTAL PROTOCOL: clinical
- CONDITION: human, in vivo, 35 mg/m2, AUC0-t
// values below are reported AUC0-t
QUANTITY MEASURED: AUC0-t (ng·h/mL)

{"MOLECULE": "CC[C@@]1(OC(=O)[C@@H](C)O)C(=O)OCc2c1cc1n(c2=O)Cc2cc3c(CN(C)C)c(O)ccc3nc2-1 [TLC-U1, S,R-topotecan lactate]", "RESULT UNITS": "ng·h/mL", "RESULT NUMBER": 340}
{"MOLECULE": "CC[C@@]1(OC(=O)[C@H](C)O)C(=O)OCc2c1cc1n(c2=O)Cc2cc3c(CN(C)C)c(O)ccc3nc2-1 [TLC-U2, S,S-topotecan lactate]", "RESULT UNITS": "ng·h/mL", "RESULT NUMBER": 88.2}
{"MOLECULE": "CC[C@@]1(O)C(=O)OCc2c1cc1n(c2=O)Cc2cc3c(CN(C)C)c(O)ccc3nc2-1 [Topotecan, reference compound]", "RESULT UNITS": "ng·h/mL", "RESULT NUMBER": 176}

* * *

- EXPERIMENTAL PROTOCOL: clinical
- CONDITION: human, in vivo, 40 mg/m2, t1/2

{"COMPOUND": "CC[C@@]1(O)C(=O)OCc2c1cc1n(c2=O)Cc2cc3c(CN(C)C)c(O)ccc3nc2-1 [Topotecan, reference compound]", "half-life, h": 5.84}
{"COMPOUND": "CC[C@@]1(OC(=O)[C@H](C)O)C(=O)OCc2c1cc1n(c2=O)Cc2cc3c(CN(C)C)c(O)ccc3nc2-1 [TLC-U2, S,S-topotecan lactate]", "half-life, h": 2.62}
{"COMPOUND": "CC[C@@]1(OC(=O)[C@@H](C)O)C(=O)OCc2c1cc1n(c2=O)Cc2cc3c(CN(C)C)c(O)ccc3nc2-1 [TLC-U1, S,R-topotecan lactate]", "half-life, h": 2.94}

* * *

- EXPERIMENTAL PROTOCOL: clinical
- CONDITION: human, in vivo, 60 mg/m2, tmax
// values below are reported Tmax
QUANTITY MEASURED: Tmax (min)

{"COMPOUND": "CC[C@@]1(OC(=O)[C@@H](C)O)C(=O)OCc2c1cc1n(c2=O)Cc2cc3c(CN(C)C)c(O)ccc3nc2-1 [TLC-U1, S,R-topotecan lactate]", "QUANTITY MEASURED": "Tmax", "RESULT UNITS": "min", "RESULT NUMBER": 27}
{"COMPOUND": "CC[C@@]1(O)C(=O)OCc2c1cc1n(c2=O)Cc2cc3c(CN(C)C)c(O)ccc3nc2-1 [Topotecan, reference compound]", "QUANTITY MEASURED": "Tmax", "RESULT UNITS": "min", "RESULT NUMBER": 55.8}
{"COMPOUND": "CC[C@@]1(OC(=O)[C@H](C)O)C(=O)OCc2c1cc1n(c2=O)Cc2cc3c(CN(C)C)c(O)ccc3nc2-1 [TLC-U2, S,S-topotecan lactate]", "QUANTITY MEASURED": "Tmax", "RESULT UNITS": "min", "RESULT NUMBER": 28.2}

* * *

- EXPERIMENTAL PROTOCOL: clinical
- CONDITION: human, in vivo, 1.5 mg/m2, AUC0-t
// values below are reported AUC0-t

{"MOLECULE": "CC[C@@]1(OC(=O)[C@@H](C)O)C(=O)OCc2c1cc1n(c2=O)Cc2cc3c(CN(C)C)c(O)ccc3nc2-1 [TLC-U1, S,R-topotecan lactate]", "AUC0-t [ng·h/mL]": 13}
{"MOLECULE": "CC[C@@]1(O)C(=O)OCc2c1cc1n(c2=O)Cc2cc3c(CN(C)C)c(O)ccc3nc2-1 [Topotecan, reference compound]", "AUC0-t [ng·h/mL]": 6.01}
{"MOLECULE": "CC[C@@]1(OC(=O)[C@H](C)O)C(=O)OCc2c1cc1n(c2=O)Cc2cc3c(CN(C)C)c(O)ccc3nc2-1 [TLC-U2, S,S-topotecan lactate]", "AUC0-t [ng·h/mL]": 3.74}

* * *

- EXPERIMENTAL PROTOCOL: clinical
- CONDITION: human, in vivo, 20 mg/m2, Cmax
// values below are reported Cmax

{"MOLECULE": "CC[C@@]1(O)C(=O)OCc2c1cc1n(c2=O)Cc2cc3c(CN(C)C)c(O)ccc3nc2-1 [Topotecan, reference compound]", "Cmax (ng/mL)": 11.3}
{"MOLECULE": "CC[C@@]1(OC(=O)[C@@H](C)O)C(=O)OCc2c1cc1n(c2=O)Cc2cc3c(CN(C)C)c(O)ccc3nc2-1 [TLC-U1, S,R-topotecan lactate]", "Cmax (ng/mL)": 87.4}
{"MOLECULE": "CC[C@@]1(OC(=O)[C@H](C)O)C(=O)OCc2c1cc1n(c2=O)Cc2cc3c(CN(C)C)c(O)ccc3nc2-1 [TLC-U2, S,S-topotecan lactate]", "Cmax (ng/mL)": 28.6}

* * *

- EXPERIMENTAL PROTOCOL: clinical
- CONDITION: human, in vivo, 30 mg/m2
QUANTITY MEASURED: half-life (h)

{"COMPOUND": "CC[C@@]1(O)C(=O)OCc2c1cc1n(c2=O)Cc2cc3c(CN(C)C)c(O)ccc3nc2-1 [Topotecan, reference compound]", "QUANTITY MEASURED": "half-life", "RESULT NUMBER": 4.63}

* * *

- EXPERIMENTAL PROTOCOL: clinical
- CONDITION: human, in vivo, 35 mg/m2, t1/2
QUANTITY MEASURED: half-life (h)

{"COMPOUND": "CC[C@@]1(OC(=O)[C@@H](C)O)C(=O)OCc2c1cc1n(c2=O)Cc2cc3c(CN(C)C)c(O)ccc3nc2-1 [TLC-U1, S,R-topotecan lactate]", "QUANTITY MEASURED": "half-life", "RESULT UNITS": "h", "RESULT NUMBER": 5.33}
{"COMPOUND": "CC[C@@]1(OC(=O)[C@H](C)O)C(=O)OCc2c1cc1n(c2=O)Cc2cc3c(CN(C)C)c(O)ccc3nc2-1 [TLC-U2, S,S-topotecan lactate]", "QUANTITY MEASURED": "half-life", "RESULT UNITS": "h", "RESULT NUMBER": 3.13}
{"COMPOUND": "CC[C@@]1(O)C(=O)OCc2c1cc1n(c2=O)Cc2cc3c(CN(C)C)c(O)ccc3nc2-1 [Topotecan, reference compound]", "QUANTITY MEASURED": "half-life", "RESULT UNITS": "h", "RESULT NUMBER": 7.66}
